Would you kindly list Protease activity upon dilution (%) immediately after preparation for each of these binders?
Target: T1, alcalase (trade name "Alcalase 2.5L", Novozymes) (UniProt P00780)
T1 sequence (looked up): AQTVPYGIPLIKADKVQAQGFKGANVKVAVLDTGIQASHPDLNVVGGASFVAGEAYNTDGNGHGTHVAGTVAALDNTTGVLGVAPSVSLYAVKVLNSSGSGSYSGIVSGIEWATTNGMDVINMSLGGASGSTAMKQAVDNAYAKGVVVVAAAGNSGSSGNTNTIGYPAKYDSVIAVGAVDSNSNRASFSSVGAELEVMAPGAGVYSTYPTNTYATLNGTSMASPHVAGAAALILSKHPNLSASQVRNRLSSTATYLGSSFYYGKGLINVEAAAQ
Experiment: cell-based or functional assay
Form entry: value (%) — number only.

Query :: Please give the documented Protease activity upon dilution (%) immediately after preparation of proteinaceous protease inhibitor of SEQ ID NO:17 (protein) TDTGDHHNQKTEWPELVGKSVEEAKKVILQDKSEAQIVVLPVGTIVTMEYRIERVRLFVDSLDKIAQVPRVG
Result :: 95

Query :: Note down Protease activity upon dilution (%) immediately after preparation recorded for proteinaceous protease inhibitor of SEQ ID NO:23 (protein) TDTGDHHNQKTEWPELVGKSVEEAKKVILQDKSEAQIAVLPVGTIVTMEYRAARVRLFVDSLDKIAQVPRVG
Result :: 82

Query :: In one line, give reported Protease activity upon dilution (%) immediately after preparation of the entry proteinaceous protease inhibitor of SEQ ID NO:10 (protein) TDTGDHHNQKTEWPELVGKSVEEAKKVILQDKSEAQIVVLPVGTIVTMELRIDRVRLFVDSLDKIAQVPRVG .
Result :: 90

Query :: Annotate the binder proteinaceous protease inhibitor of SEQ ID NO:19 (protein) TDTGDHHNQKTEWPELVGKSVEEAKKVILQDKSEAQIVVLPVGTIVTMEYRIDRVRLFVDSLDKIAQVPAVG with its measured Protease activity upon dilution (%) immediately after preparation.
Result :: 85

Query :: Kindly indicate its recorded Protease activity upon dilution (%) immediately after preparation. Item: proteinaceous protease inhibitor (BC) of SEQ ID NO:1, wheat-derived subtilisin/chymotrypsin inhibitor (protein) TDTGDHHNQKTEWPELVGKSVEEAKKVILQDKSEAQIVVLPVGTIVTMEYRIDRVRLFVDSLDKIAQVPRVG
Result :: 10
